Cited source: ChEMBL document CHEMBL4256942

ASSAYED_TARGET: Exportin-1 (Homo sapiens, UniProt O14980)
Sequence (O14980 whole entry, the tested form may be a part): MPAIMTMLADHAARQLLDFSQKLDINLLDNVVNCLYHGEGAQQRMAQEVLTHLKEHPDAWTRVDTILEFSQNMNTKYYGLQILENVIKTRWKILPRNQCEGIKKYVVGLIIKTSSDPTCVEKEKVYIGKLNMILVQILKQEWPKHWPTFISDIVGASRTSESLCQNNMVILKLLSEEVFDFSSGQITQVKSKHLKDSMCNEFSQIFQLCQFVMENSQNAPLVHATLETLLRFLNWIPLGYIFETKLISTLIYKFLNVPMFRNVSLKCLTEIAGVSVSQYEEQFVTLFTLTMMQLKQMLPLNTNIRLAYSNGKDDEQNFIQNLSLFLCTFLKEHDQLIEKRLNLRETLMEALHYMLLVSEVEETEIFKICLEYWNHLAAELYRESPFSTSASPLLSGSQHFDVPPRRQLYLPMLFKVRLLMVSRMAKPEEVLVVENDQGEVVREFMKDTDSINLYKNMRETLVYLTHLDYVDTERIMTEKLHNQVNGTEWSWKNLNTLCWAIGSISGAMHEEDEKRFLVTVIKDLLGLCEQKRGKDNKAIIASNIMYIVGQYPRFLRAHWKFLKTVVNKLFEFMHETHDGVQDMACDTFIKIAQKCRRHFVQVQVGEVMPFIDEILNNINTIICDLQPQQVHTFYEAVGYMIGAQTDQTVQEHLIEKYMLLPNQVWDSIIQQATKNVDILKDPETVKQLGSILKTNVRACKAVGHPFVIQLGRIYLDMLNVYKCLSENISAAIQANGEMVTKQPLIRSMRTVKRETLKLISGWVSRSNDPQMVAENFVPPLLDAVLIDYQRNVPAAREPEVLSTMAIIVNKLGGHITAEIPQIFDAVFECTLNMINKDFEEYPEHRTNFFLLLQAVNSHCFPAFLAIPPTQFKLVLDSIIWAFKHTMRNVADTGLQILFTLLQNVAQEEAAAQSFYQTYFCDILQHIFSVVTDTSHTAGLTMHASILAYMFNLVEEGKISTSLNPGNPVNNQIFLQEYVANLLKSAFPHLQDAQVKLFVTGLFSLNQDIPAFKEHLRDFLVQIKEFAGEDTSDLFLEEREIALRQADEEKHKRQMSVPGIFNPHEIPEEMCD
PROTOCOL_SUMMARY: Inhibition of CRM1 in human HeLa cells expressing GFP which is N-terminally fused to nuclear localization and C-terminally fused to nuclear export signal of PKI assesed as reduction in GFP subcellular localization incubated for 3 hrs by nuclear export assay
Field: EC50. Provide a value for each of the compounds that follow.
Output spec: scalar in µM, unitless text.

Q: Fill in the blank: the reported EC50 of `C=C(Cn1nnc(-c2cccc(Cl)c2)n1)C(=O)OCC` is ____.
A: 30

Q: Please give the measured EC50 for this compound: `C=C(Cn1nnc(-c2cccc(C(F)(F)F)c2)n1)C(=O)OCC`
A: 30
